System: PXR homodimer (NR concentration 270 nM)
test_method_notes: PBM binding z-score (relative to random genomic background probes); higher = stronger binding; sequences stand for … in GC…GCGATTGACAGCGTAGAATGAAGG
measured_endpoint: PBM binding z-score

[[record]]
biosequence = "CCTCGGAGGACAGAAGGTCAGAGCAGTCCGCTTT"
numeric_result = -0.373

[[record]]
biosequence = "GCTAGCAGGACATTTGGGTCACTCAATGACGGGC"
numeric_result = 0.862

[[record]]
biosequence = "TGAATGAGGTTATAAGATCAGGAAACGTTGCAAA"
numeric_result = 0.0316

[[record]]
biosequence = "ATCGAAAGGTCGACGAGGTCAGTATACACCGTTT"
numeric_result = 9.23

[[record]]
biosequence = "AGAATGAGGTTGAGATCAGGGAAACAGAATACAT"
numeric_result = 0.387

[[record]]
biosequence = "CCTTACGGGTAAAGGTTATAGCACGGGTGGTACG"
numeric_result = 0.1

[[record]]
biosequence = "GCGACTAGGGCATCAGCAGGTTACCATAACTTAA"
numeric_result = -0.519

[[record]]
biosequence = "TTACCAAGGTGAAGGTCTTTGATCCCTCTGTAGA"
numeric_result = -0.43

[[record]]
biosequence = "ATCGAAAGGACGACGAGGTGAGTATACACCGTTT"
numeric_result = -0.293

[[record]]
biosequence = "CCTAGCAGGCCAATCTGGGTCACTCATGGCTTGA"
numeric_result = -0.181

[[record]]
biosequence = "CGAACTAGGTCAAGGACAGCGAATCTCCGCACGC"
numeric_result = 0.0262

[[record]]
biosequence = "ATCTCTAGGTAACAAAGTTCAGTGAATGCCGAAC"
numeric_result = 2.09


* * *

System: VDR homodimer (NR concentration 270 nM)
test_method_notes: PBM binding z-score (relative to random genomic background probes); higher = stronger binding; sequences stand for … in GC…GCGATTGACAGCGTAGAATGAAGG
Parameter threshold = 2. Response is fulfilled when PBM binding z-score meets or exceeds it, else not fulfilled.

[[record]]
biosequence = "CCTTACGGGTCATTCCAGGTTATAGCATCGGAGT"
category_label = "fulfilled"

[[record]]
biosequence = "CGTCCCAGGTCAAGGTCAGTGAAAGAGACTCGAA"
category_label = "fulfilled"

[[record]]
biosequence = "GGACCGAGGGCAAAGTTGATAGCATCTGTCGACG"
category_label = "not fulfilled"

[[record]]
biosequence = "ATCTCTAGGTCACCAAGTTCAGTGAATGCCGAAC"
category_label = "fulfilled"

[[record]]
biosequence = "CCTAGCAGGCCAATCTGGATCACTCAAGGCTTGA"
category_label = "not fulfilled"

[[record]]
biosequence = "TCTGCTAGGTCAGTGGGTCAGCTAACGAGCTGCC"
category_label = "not fulfilled"

[[record]]
biosequence = "CGAACTAGGTCATCCTGGACAGTGAATACATTGA"
category_label = "not fulfilled"

[[record]]
biosequence = "TATACATGGTCAAAGGCCAGAGTACGAATGTCGA"
category_label = "not fulfilled"

[[record]]
biosequence = "CCGAGTAGGTTATGGAGCATTCAGGCAACGGTGA"
category_label = "not fulfilled"

[[record]]
biosequence = "ACTAGCAGGCCAAGTGTCACTCAAGATTAGTCCG"
category_label = "not fulfilled"

[[record]]
biosequence = "CAAACTAGGTCAAGACGTCAAAGTCCGCTTCCCG"
category_label = "not fulfilled"

[[record]]
biosequence = "CATACTAGGTCACCGGAAGGTCAAAGTCCGCATG"
category_label = "fulfilled"

[[record]]
biosequence = "AGAATGAGGTTATACGTAGATCAGGGACGAAAGT"
category_label = "not fulfilled"

[[record]]
biosequence = "AGAACGAGGGCACGCTGAGTTGATAGGAGAGTAG"
category_label = "not fulfilled"

[[record]]
biosequence = "ATCGAAAGGACGAGGTGAGTATAGAGAAAGGGAA"
category_label = "not fulfilled"

[[record]]
biosequence = "AGATGTAGGTTATCGGGTCATTCAGTTTGCGCAT"
category_label = "fulfilled"

[[record]]
biosequence = "TCTGCTAGGTGAGTTGGTCAGCTAACGAGCTGCC"
category_label = "not fulfilled"

[[record]]
biosequence = "ATCTCAAGGTAAAGTTCAGTGAAAGATCGATAGA"
category_label = "fulfilled"

[[record]]
biosequence = "ACAGACAGGTGATGAAGGCAACTCAGGCTATCAT"
category_label = "not fulfilled"

[[record]]
biosequence = "CCTATTAGTTGACTATAAGGGCAACCGAAGCTCG"
category_label = "not fulfilled"

[[record]]
biosequence = "TCACATAGGTAAAGGTGAAAGTCGAACGATATGA"
category_label = "not fulfilled"

[[record]]
biosequence = "AGTCAAAGTTCATCTAGGTAACGTGAGATATGCT"
category_label = "fulfilled"

[[record]]
biosequence = "TCTCGGAGGACACGTAGGTCAGAGCTTTCCAGAG"
category_label = "not fulfilled"

[[record]]
biosequence = "CAAACTAGGTCACAGAGGTCAAGGTCCGTGCGTA"
category_label = "fulfilled"

[[record]]
biosequence = "ATACCAAGGTGATCGTGAGATCGTTGATACTAAC"
category_label = "not fulfilled"

[[record]]
biosequence = "ACAAGTTGGTCAGCTGAGGTCACACACAATTCGG"
category_label = "fulfilled"

[[record]]
biosequence = "TAGCCTAGGTCATGGGCCAATATACCACGCGAAC"
category_label = "not fulfilled"

[[record]]
biosequence = "CGTCCAAGGTCAATGCTATGTCAGTGAAAGCATT"
category_label = "fulfilled"

[[record]]
biosequence = "GGAACGAGGGCATGTTGATAGCAGAGTTTGATGG"
category_label = "not fulfilled"

[[record]]
biosequence = "TCATATAGGTAATACACGTGAAAGTCGGCATCTA"
category_label = "not fulfilled"

[[record]]
biosequence = "ATATGTAGGTTATCGGGTCAATCAGTTTGCGCAT"
category_label = "fulfilled"

[[record]]
biosequence = "CAAACTAGGTCACGAAAGGTCAAAGTAGAATGAC"
category_label = "fulfilled"

[[record]]
biosequence = "GCTGCTAGGTCAACTGTTGGTCAGCTAAAGCTCG"
category_label = "not fulfilled"

[[record]]
biosequence = "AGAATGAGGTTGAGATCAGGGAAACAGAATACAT"
category_label = "not fulfilled"

[[record]]
biosequence = "CCTACTGGGCCATTCAGAGGTCATTGCTCATATG"
category_label = "fulfilled"

[[record]]
biosequence = "AGTCAAAGTGCACTAGGTAACGTAAGATTCAGCT"
category_label = "not fulfilled"

[[record]]
biosequence = "ACTTACGGGTCATCGAGGTTATAGCACGCGTATA"
category_label = "fulfilled"

[[record]]
biosequence = "GCTATTGGTTGAAAGGGCAACCGAATGATTCTCG"
category_label = "not fulfilled"

[[record]]
biosequence = "GCTCGGAGGACAAGGTCCGAGCTTTGTCCGTAGA"
category_label = "not fulfilled"

[[record]]
biosequence = "GCTTACGGGTCAAATGTTATAGCATGAATAGAAT"
category_label = "not fulfilled"

[[record]]
biosequence = "CCGACTGGGCCAAGGTTACCATAACGCACAGCCA"
category_label = "not fulfilled"

[[record]]
biosequence = "TGAATTAGGTTATAAGATCAGGGAACGTTGCAAA"
category_label = "not fulfilled"

[[record]]
biosequence = "CCTCGGAGGAGAGAAGGTCAGAGCTGTCCGCTTT"
category_label = "not fulfilled"

[[record]]
biosequence = "TCTAGTTGGTCACGGAGCTCACACACGACGGGTA"
category_label = "not fulfilled"

[[record]]
biosequence = "CCTACTGGGCCAAAAAGGGCATTGATGCCGATAA"
category_label = "not fulfilled"

[[record]]
biosequence = "GCTCGGAGGACAAGGGCAGAGCTTTGTCCGTAGA"
category_label = "not fulfilled"

[[record]]
biosequence = "AGAATGAGGTTAATATCAGGGAAACAGAATACAT"
category_label = "not fulfilled"

[[record]]
biosequence = "TCTACTAGGTCAACGATGGTCAGCTAATCTGCTA"
category_label = "not fulfilled"

[[record]]
biosequence = "CAAACTAGGTCAGAGGTCAAAGTCGAGCCAACCA"
category_label = "fulfilled"


* * *

Tested on: RARb:RXRa (NR concentration 270 nM, RXRa partner concentration 90 nM)
test_method_notes: PBM binding z-score (relative to random genomic background probes); higher = stronger binding; sequences stand for … in GC…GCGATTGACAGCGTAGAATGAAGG
Parameter threshold = 3. Response is 1 when PBM binding z-score meets or exceeds it, else -1.

[[record]]
biosequence = "ATATGTAGGTTCGCTGGGGTCATTCAGACTAGGC"
category_label = -1

[[record]]
biosequence = "GATACAGGGTCAGCTAGAGGCCAGAGTCTGGAAA"
category_label = 1

[[record]]
biosequence = "CCTTACGGGTCACTGATAGGTTATAGCATTTGGA"
category_label = 1

[[record]]
biosequence = "AGACTGAGGTTATACGTAGATCAGGGAAGAAAGT"
category_label = -1

[[record]]
biosequence = "ATATGTAGGTTAGCTGGGGTCATACAGACTAGGC"
category_label = 1

[[record]]
biosequence = "CAAACTAGGTCACAGAGTTCAAAGTCCGTGCGTA"
category_label = 1

[[record]]
biosequence = "CGAAAGAGGGCATGAGTTGATAGCAAATGCCGAT"
category_label = -1

[[record]]
biosequence = "TCTCGGAGGACACGAAGGTCAGATCTTTCCAGAG"
category_label = 1

[[record]]
biosequence = "ATATGTAGGTTAGCAGGGGTCATTCAGACTAGGC"
category_label = 1

[[record]]
biosequence = "TCTATTAGTTGAGTAGGGCAACCGAAACAGCGGA"
category_label = -1

[[record]]
biosequence = "ACTTGCAGGCCAAGTTTGGGTCACTCAAACAAAG"
category_label = -1

